Ref: patent US6653478B2

Attribute: pIC50
Assayed System: human V1b receptor (Homo sapiens)
Sequence (P47901 whole entry): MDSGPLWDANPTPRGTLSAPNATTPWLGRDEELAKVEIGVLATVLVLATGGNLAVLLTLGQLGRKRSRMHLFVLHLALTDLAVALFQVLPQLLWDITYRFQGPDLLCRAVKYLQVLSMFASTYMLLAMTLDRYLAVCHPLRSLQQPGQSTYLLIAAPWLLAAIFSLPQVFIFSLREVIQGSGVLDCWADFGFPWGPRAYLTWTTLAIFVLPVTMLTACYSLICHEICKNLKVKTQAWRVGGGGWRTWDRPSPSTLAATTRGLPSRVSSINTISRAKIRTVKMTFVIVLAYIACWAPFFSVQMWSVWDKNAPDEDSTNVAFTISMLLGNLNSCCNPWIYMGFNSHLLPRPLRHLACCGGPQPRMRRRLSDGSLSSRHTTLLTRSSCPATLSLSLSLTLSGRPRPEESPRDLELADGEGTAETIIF
Method: V1b binding assay (3H-AVP displacement, HEK-293 membranes)
Design: expressed in transfected cells; host or cells: HEK-293 (membranes)
Method: V1a, V1b or V2 Binding Assay Receptor binding studies were performed using recombinant human V1a, V1b or V2 receptors. Cellular membranes were harvested from HEK-293 cells transfected to express either the V1a, V1b or V2 receptors. Compounds were evaluated for their ability to displace ^3H-arginine vasopressin (^3H-AVP; specific activity 40-87 Ci/mmol; NEN Life Sciences, Boston, Mass.). […] Non-specific binding was determined using 1.25 μM arginine vasopressin (AVP; Peninsula Labs, Belmont, Calif.). […]
pIC50 here is simply -log10 of the concentration when that concentration is written in mol/L.

# value lookup — system human V1b receptor (Homo sapiens), readout pIC50, item `O=c1n(CCCN2CCOCC2)c2ccccc2n1C1CCN(C(=S)NC(c2ccccc2)c2ccccc2)CC1`
6.56

---

Attribute: inhibition at 1 µM
Assayed System: human V2 receptor (Homo sapiens, UniProt P30518)
Sequence (P30518 whole entry): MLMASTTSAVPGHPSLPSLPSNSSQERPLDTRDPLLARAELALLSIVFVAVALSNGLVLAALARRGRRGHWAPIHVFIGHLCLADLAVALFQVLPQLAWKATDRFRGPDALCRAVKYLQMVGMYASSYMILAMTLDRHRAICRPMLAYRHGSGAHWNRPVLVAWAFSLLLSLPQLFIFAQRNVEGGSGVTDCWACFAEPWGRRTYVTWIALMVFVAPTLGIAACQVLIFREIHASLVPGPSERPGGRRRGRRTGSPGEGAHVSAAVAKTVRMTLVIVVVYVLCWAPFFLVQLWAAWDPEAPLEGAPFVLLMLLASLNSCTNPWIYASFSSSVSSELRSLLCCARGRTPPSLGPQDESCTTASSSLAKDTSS
Method: V2 binding assay (3H-AVP displacement, HEK-293 membranes)
Design: expressed in transfected cells; host or cells: HEK-293 (membranes)
Condition Set: 1.0 μM compound; read-out: V2@1.0, % Inh
Dear colleague, please return just the value in %, with no unit written.

See these solved cases before continuing.
What value of inhibition at 1 µM has been reported for the following compound? `O=c1n(CCCN2CCCCC2)c2ccccc2n1C1CCN(C(=S)Nc2ccc3c(c2)CCC3)CC1`
5

Repeat for the following compound: `COc1cccc(CNC(=S)N2CCC(n3c(=O)n(CCCN4CCCC4)c4ccccc43)CC2)c1OC`
2

Repeat for the following compound: CN1CCCC1CCn1c(=O)n(C2CCN(C(=S)NC(c3ccccc3)c3ccccc3)CC2)c2ccccc21 (centres unmarked)
0

Repeat for the following compound: `O=c1n(CCCN2CCCCC2)c2ccccc2n1C1CCN(C(=S)NCc2ccc(Cl)cc2)CC1`
3

***
What value of inhibition at 1 µM has been reported for the following compound? `O=c1[nH]c2ccccc2n1C1CCN(C(=S)Nc2ccccc2)CC1`
7

Repeat for the following compound: `O=c1n(CCN2CCOCC2)c2ccccc2n1C1CCN(C(=S)NC(c2ccccc2)c2ccccc2)CC1`
42

Repeat for the following compound: `O=c1[nH]c2ccccc2n1C1CCN(C(=S)NCc2cccnc2)CC1`
2

Repeat for the following compound: CCN(CC)CCn1c(=O)n(C2CCN(C(=S)NC(C)c3ccc(F)cc3)CC2)c2ccccc21 (centres unmarked)
0

---

Assayed System: NPY2 receptors (Homo sapiens)
Construct: Cell Membranes from KAN-TS cells having NPY2 receptors; endogenous in cells; host or cells: KAN-TS cells (membranes)
Method: Neuropeptide Y receptor binding assay (125I-PYY, KAN-TS cell membranes)
Condition Set: 10 μM compound; read-out: NPY-2@10, % Inh
Attribute: inhibition at 10 µM
Dear colleague, please return just the value in %, with no unit written.

See these solved cases before continuing.
What value of inhibition at 10 µM has been reported for the following compound? `CN(CCCn1c(=O)n(C2CCN(C(=S)NC(c3ccccc3)c3ccccc3)CC2)c2ccccc21)C1CCCCC1`
85

Repeat for the following compound: `CC1CCN(CCCn2c(=O)n(C3CCN(C(=S)NC(c4ccccc4)c4ccccc4)CC3)c3ccccc32)CC1`
89

Repeat for the following compound: `Cc1ccccc1NC(=S)N1CCC(n2c(=O)n(CCCN3CCCCC3)c3ccccc32)CC1`
58

Field: next compound
What value of inhibition at 10 µM has been reported for the following compound? `COC(=O)[C@@H](Cc1ccccc1)NC(=S)N1CCC(n2c(=O)[nH]c3ccccc32)CC1`
2

---

Assayed System: human V2 receptor (Homo sapiens)
Method: V2 binding assay (3H-AVP displacement, HEK-293 membranes)
Parameters: expressed in transfected cells; host or cells: HEK-293 (membranes)
Condition Set: 1.0 μM compound; read-out: V2@1.0, % Inh
Attribute: inhibition at 1 µM

See these solved cases before continuing.
What value of inhibition at 1 µM has been reported for the following compound? `CN1CCN(CCCn2c(=O)n(C3CCN(C(=S)NC(c4ccccc4)c4ccccc4)CC3)c3ccccc32)CC1`
17%

Repeat for the following compound: `O=C(NC1c2ccccc2-c2ccccc21)N1CCC(n2c(=O)n(CCCN3CCCCC3)c3ccccc32)CC1`
2%

Repeat for the following compound: `CCCC1CCN(CCCn2c(=O)n(C3CCN(C(=S)NC(c4ccccc4)c4ccccc4)CC3)c3ccccc32)CC1`
0%

***
What value of inhibition at 1 µM has been reported for the following compound? `O=C(Nc1ccccc1F)N1CCC(n2c(=O)n(CCCN3CCCCC3)c3ccccc32)CC1`
2%

---

Attribute: IC50
Assayed System: human V1a receptor (Homo sapiens, UniProt P37288)
Sequence (P37288 whole entry): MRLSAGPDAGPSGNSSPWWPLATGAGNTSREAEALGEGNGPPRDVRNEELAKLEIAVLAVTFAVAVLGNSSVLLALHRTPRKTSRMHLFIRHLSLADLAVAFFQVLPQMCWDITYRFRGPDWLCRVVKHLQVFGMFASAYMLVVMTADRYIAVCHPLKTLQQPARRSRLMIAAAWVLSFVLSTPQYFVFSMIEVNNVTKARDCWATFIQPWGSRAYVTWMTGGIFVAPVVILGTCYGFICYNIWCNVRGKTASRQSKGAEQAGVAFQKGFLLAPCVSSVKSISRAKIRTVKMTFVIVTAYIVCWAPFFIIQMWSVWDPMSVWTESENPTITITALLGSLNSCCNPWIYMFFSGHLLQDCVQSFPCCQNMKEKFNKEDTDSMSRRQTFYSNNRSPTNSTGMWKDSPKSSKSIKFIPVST
Method: V1a binding assay (3H-AVP displacement, HEK-293 membranes)
Parameters: expressed in transfected cells; host or cells: HEK-293 (membranes)
Dear colleague, please return just the value in nM, with no unit written.

What value of IC50 has been reported for the following compound? `CC1CCN(CCCn2c(=O)n(C3CCN(C(=S)NC(c4ccccc4)c4ccccc4)CC3)c3ccccc32)CC1`
23

Repeat for the following compound: `O=c1[nH]c2ccccc2n1C1CCN(C(=S)NCC(c2ccccc2)c2ccccc2)CC1`
1200

Repeat for the following compound: CC1CC(C)CN(CCCn2c(=O)n(C3CCN(C(=O)NC(c4ccccc4)c4ccccc4)CC3)c3ccccc32)C1 (stereo not drawn)
14

---

Attribute: inhibition at 1 µM
Assayed System: human V1a receptor (Homo sapiens)
Method: V1a binding assay (3H-AVP displacement, HEK-293 membranes)
Parameters: expressed in transfected cells; host or cells: HEK-293 (membranes)
Condition Set: 1.0 μM compound; read-out: V1a@1.0, % Inh
Dear colleague, please return just the value in %, with no unit written.

See these solved cases before continuing.
What value of inhibition at 1 µM has been reported for the following compound? Cc1ccc2c(c1)n(CCCN1CCCCC1)c(=O)n2C1CCN(C(=O)NC(c2ccccc2)c2ccccc2)CC1 [Compound 171]
65

Repeat for the following compound: CN1CCCC1CCn1c(=O)n(C2CCN(C(=O)NC(c3ccccc3)c3ccccc3)CC2)c2ccccc21 (centres unmarked) [Compound 94]
68

***
What value of inhibition at 1 µM has been reported for the following compound? O=c1[nH]c2ccccc2n1C1CCN(C(=S)NCc2ccc3c(c2)OCO3)CC1 [Compound 16]
40

Repeat for the following compound: COC(=O)[C@@H](Cc1ccccc1)NC(=S)N1CCC(n2c(=O)[nH]c3ccccc32)CC1 [Compound 51]
25

Repeat for the following compound: O=c1[nH]c2ccccc2n1C1CCN(C(=S)NCCc2cccc(Cl)c2)CC1 [Compound 23]
56

---

Assayed System: human V2 receptor (Homo sapiens, UniProt P30518)
Method: V2 binding assay (3H-AVP displacement, HEK-293 membranes)
Parameters: expressed in transfected cells; host or cells: HEK-293 (membranes)
Condition Set: 1.0 μM compound; read-out: V2@1.0, % Inh
Where a name gives a salt, the structure may show the parent alone.
Attribute: inhibition at 1 µM
Dear colleague, please return just the value in %, with no unit written.

See these solved cases before continuing.
# value lookup — system human V2 receptor (Homo sapiens, UniProt P30518), readout inhibition at 1 µM, item NCCCn1c(=O)n(C2CCN(C(=O)Nc3ccccc3-c3ccccc3)CC2)c2ccccc21 [Compound 62, hydrochloride]
0

Repeat for the following compound: `O=c1n(CCCCN2CCCCC2)c2ccccc2n1C1CCN(C(=S)NC(c2ccccc2)c2ccccc2)CC1`
12

Repeat for the following compound: `CCN(CC)CCn1c(=O)n(C2CCN(C(=S)NCc3ccccc3-c3ccccc3)CC2)c2ccccc21`
5

Repeat for the following compound: O=C1OCCC1NC(=S)N1CCC(n2c(=O)n(CCCN3CCCCC3)c3ccccc32)CC1 (centres unmarked)
6

Field: next compound
# value lookup — system human V2 receptor (Homo sapiens, UniProt P30518), readout inhibition at 1 µM, item `O=c1n(CCCN2CC=CCC2)c2ccccc2n1C1CCN(C(=S)NC(c2ccccc2)c2ccccc2)CC1`
8

---

Assayed System: NPY2 receptors (Homo sapiens, UniProt P49146)
Construct: Cell Membranes from KAN-TS cells having NPY2 receptors; endogenous in cells; host or cells: KAN-TS cells (membranes)
Sequence (P49146 whole entry): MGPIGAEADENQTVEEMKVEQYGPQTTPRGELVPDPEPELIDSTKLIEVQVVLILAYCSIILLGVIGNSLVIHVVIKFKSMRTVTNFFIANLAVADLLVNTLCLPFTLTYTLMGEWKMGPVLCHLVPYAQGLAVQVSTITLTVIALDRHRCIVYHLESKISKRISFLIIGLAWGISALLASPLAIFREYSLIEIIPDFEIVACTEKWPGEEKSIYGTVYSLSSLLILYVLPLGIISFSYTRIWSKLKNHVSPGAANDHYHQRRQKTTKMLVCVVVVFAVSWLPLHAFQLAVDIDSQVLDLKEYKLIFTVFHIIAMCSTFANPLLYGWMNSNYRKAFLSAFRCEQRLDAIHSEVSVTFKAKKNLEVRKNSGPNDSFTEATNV
Method: Neuropeptide Y receptor binding assay (125I-PYY, KAN-TS cell membranes)
Condition Set: 10 μM compound; read-out: NPY-2@10, % Inh
Method: Neuropeptide Y Receptor Binding Assay Load 96-well RIA racks with RIA vials (Sarstedt, cat. #73.1055) Prepare membranes—use 2×15 cm confluent plates/96-well assay plate Add 14 mls Homogenization buffer/cell pellet Homogenize at high speed for 15 seconds Transfer to 15 ml conical tube and spin 5′ at 4° C. at setting 3 in RT6000 centrifuge Transfer supernatant to 30 ml Corex tube Balance and spin 25′ at 15,000 rpm at 4° C. Resuspend pellet in 10 mls Binding buffer Homogenize at high speed for 15 sec. […]
Quantity Name: inhibition at 10 µM (%)
Dear colleague, please return just the value in %, with no unit written.

See these solved cases before continuing.
# value lookup — system NPY2 receptors (Homo sapiens, UniProt P49146), readout inhibition at 10 µM, item COC(=O)C(Cc1ccccc1)NC(=S)N1CCC(n2c(=O)n(CCCNC(=O)OCc3ccccc3)c3ccccc32)CC1 (stereo not drawn)
11

Repeat for the following compound: `O=c1[nH]c2ccccc2n1C1CCN(C(=S)NCCc2ccccc2)CC1`
11

Repeat for the following compound: `O=C(NCc1ccccc1)N1CCC(n2c(=O)n(CCCN3CCCCC3)c3ccccc32)CC1`
0

Repeat for the following compound: `O=c1[nH]c2ccccc2n1C1CCN(C(=S)NC2c3ccccc3-c3ccccc32)CC1`
13

Repeat for the following compound: `COc1ccc(C(NC(=S)N2CCC(n3c(=O)[nH]c4ccccc43)CC2)c2ccc(OC)cc2)cc1`
21

***
# value lookup — system NPY2 receptors (Homo sapiens, UniProt P49146), readout inhibition at 10 µM, item `COc1ccccc1NC(=S)N1CCC(n2c(=O)n(CCCN3CCCCC3)c3ccccc32)CC1`
13
